B1: TPR 5TU (parent)
chain: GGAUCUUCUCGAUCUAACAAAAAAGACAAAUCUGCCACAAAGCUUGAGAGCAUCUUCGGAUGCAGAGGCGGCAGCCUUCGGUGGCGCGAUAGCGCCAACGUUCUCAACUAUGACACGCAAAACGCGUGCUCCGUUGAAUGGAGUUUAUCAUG

- Variants of: B1
- test.description: polymerase ribozyme fitness, log enrichment relative to wild type (log ratio); higher = more active; in vitro selection for triplet polymerase activity
Fewer inactive variants are shown than the library holds.
Provide the reported polymerase ribozyme fitness (log ratio) of each item.

Ask | Return value of polymerase ribozyme fitness (log ratio) for input C54U U134A , no commentary.
Reply | -2.84

Ask | Find the measured polymerase ribozyme fitness (log ratio) of A47G A91G A97G A98C U134G U139A and report it.
Reply | ≤ -4.2

Ask | Specify measured polymerase ribozyme fitness (log ratio) for A23C C96G .
Reply | -3.81

Ask | Tell me polymerase ribozyme fitness (log ratio) reported for U44A U77A C95A G143A
Reply | ≤ -4.2

Ask | Report polymerase ribozyme fitness (log ratio) for U82A G124A
Reply | 0.114

Ask | Kindly indicate its recorded polymerase ribozyme fitness (log ratio). Item: A19U C43G C54G A91G
Reply | ≤ -4.2

Ask | Return reported polymerase ribozyme fitness (log ratio). Input variant: A3G C8U G25C U45G U55G G81C C95U C114U G117U A120G A122G
Reply | ≤ -4.2

Ask | Hello, please tell me recorded polymerase ribozyme fitness (log ratio) for this one: G46U C87A G88A G143U U148A
Reply | ≤ -4.2

Ask | Specify measured polymerase ribozyme fitness (log ratio) for A40U A52G G58C C75U G141U .
Reply | -2.07

Ask | Supply measured polymerase ribozyme fitness (log ratio) of G48U C85A U127C in your reply.
Reply | -2.74

Ask | Input C57A C76U , output reported polymerase ribozyme fitness (log ratio).
Reply | 0.264

Ask | Could you please provide reported polymerase ribozyme fitness (log ratio) for C36A C96U U111G ? Thanks!
Reply | ≤ -4.2

Ask | Identify the reported polymerase ribozyme fitness (log ratio) for the following entry. C76A C95U A142G
Reply | -1.94

Ask | Supply recorded polymerase ribozyme fitness (log ratio) for C95A A98G here.
Reply | 0.372

Ask | Please report polymerase ribozyme fitness (log ratio) for the following variant: G25C A39C C76A C79U C87A A110U C114U
Reply | ≤ -4.2

Ask | Read off the recorded polymerase ribozyme fitness (log ratio) for A49G A106G
Reply | -1.08

Ask | Give polymerase ribozyme fitness (log ratio) for G59A C87G G140C
Reply | ≤ -4.2

Ask | Give the reported polymerase ribozyme fitness (log ratio) for this variant. C51U G94C
Reply | -0.484

Ask | Kindly indicate its recorded polymerase ribozyme fitness (log ratio). Item: U82G C85A C95U U146A A150U
Reply | -1.37

Ask | Query polymerase ribozyme fitness (log ratio) for C72G U77G G84A C114G
Reply | ≤ -4.2

Ask | Supply recorded polymerase ribozyme fitness (log ratio) for U53A C54A G65U G86U A91U here.
Reply | ≤ -4.2

Ask | Quickly give me recorded polymerase ribozyme fitness (log ratio) for C18U A23U A91U C95G U104C C118A A147U
Reply | ≤ -4.2

Ask | Return polymerase ribozyme fitness (log ratio) (reported value) for this variant: G83U C132U
Reply | -1.33

Ask | Output measured polymerase ribozyme fitness (log ratio) for this item: C10A C27G U77C G83A
Reply | ≤ -4.2

Ask | For the variant C132A , give its reported polymerase ribozyme fitness (log ratio).
Reply | -2.06

Ask | // Input: U45A G46A U55C A66G U77G U82A C103G U135C U145C . Output its polymerase ribozyme fitness (log ratio) only.
Reply | ≤ -4.2

Ask | Kindly indicate its recorded polymerase ribozyme fitness (log ratio). Item: A30U U55A G59A G70A C96G A97G
Reply | ≤ -4.2

Ask | Look up polymerase ribozyme fitness (log ratio) of A28U U55A C72U U90C A115G and report it.
Reply | ≤ -4.2

Ask | Identify the reported polymerase ribozyme fitness (log ratio) for the following entry. U4C G42A A49C G50C C51U C79G A91U A121G
Reply | ≤ -4.2

Ask | Consider the variant A23G A30G A52U C116U C132U and give its recorded polymerase ribozyme fitness (log ratio).
Reply | ≤ -4.2

Ask | Give the reported value of polymerase ribozyme fitness (log ratio) for this record: A28G A49G G50A C87G
Reply | ≤ -4.2

Ask | Answer with the recorded polymerase ribozyme fitness (log ratio) of A28U C57U G84U G94A A98U C116A A147C only.
Reply | ≤ -4.2

Ask | Kindly indicate its recorded polymerase ribozyme fitness (log ratio). Item: A22C C51U G84U
Reply | -2.78

Ask | Find the measured polymerase ribozyme fitness (log ratio) of U15C A20G A97G G140A and report it.
Reply | -3.64

Ask | Output polymerase ribozyme fitness (log ratio) of G86U A98U U111G C114U
Reply | -3.81

Ask | Give a short answer stating reported polymerase ribozyme fitness (log ratio) for A49C A98G .
Reply | ≤ -4.2

Ask | Output polymerase ribozyme fitness (log ratio) of A21U A60U C103G C108U A142G U148C
Reply | ≤ -4.2

Ask | Please supply the value of reported polymerase ribozyme fitness (log ratio) for the item A3U G46A G50U U56A G74A G84U U130A U144C C149U
Reply | ≤ -4.2

Ask | Let me know recorded polymerase ribozyme fitness (log ratio) for C36U G81A C93G G136A , thanks.
Reply | ≤ -4.2

Ask | Provide only the value of recorded polymerase ribozyme fitness (log ratio) for A49C U56A G88U A122C C125U
Reply | ≤ -4.2

Ask | Give a short answer stating reported polymerase ribozyme fitness (log ratio) for U56A G92C U139A G140U .
Reply | -3.76

Ask | Note polymerase ribozyme fitness (log ratio) for the variant shown: C5G A28G G48C G83C U104G G133U
Reply | ≤ -4.2

Ask | Retrieve polymerase ribozyme fitness (log ratio) measured for C32U U144A and print it.
Reply | -2.41

Ask | Specify measured polymerase ribozyme fitness (log ratio) for G59U A120U A122U .
Reply | -0.451

Ask | Check the records and state polymerase ribozyme fitness (log ratio) for C35G C69A C76A C118G U127C
Reply | ≤ -4.2

Ask | Respond only with polymerase ribozyme fitness (log ratio) recorded for G68U C99U G117C G143A
Reply | ≤ -4.2

Ask | Return polymerase ribozyme fitness (log ratio) (reported value) for this variant: U13C C35A A91U C95A U104C C131G
Reply | ≤ -4.2

Ask | State its polymerase ribozyme fitness (log ratio) for this variant: A24G G62U G94A C116G A120U U127A U135C
Reply | ≤ -4.2

Ask | Specify reported polymerase ribozyme fitness (log ratio) for the variant shown: A28C G46C C76G U82A A89C G124A
Reply | ≤ -4.2

Ask | State its polymerase ribozyme fitness (log ratio) for this variant: C14A A16U A19U A52G G68A C85G U151G
Reply | ≤ -4.2

Ask | Return reported polymerase ribozyme fitness (log ratio). Input variant: C57U G68A C72U G92A
Reply | ≤ -4.2

Ask | Please give the documented polymerase ribozyme fitness (log ratio) of A3U C14G G50C C85U G88A
Reply | ≤ -4.2

Ask | Using the record for A52C U56A G67C G84A U139G U144A , state its measured polymerase ribozyme fitness (log ratio).
Reply | ≤ -4.2

Ask | For A3G G84C , write its polymerase ribozyme fitness (log ratio).
Reply | -1.98

Ask | Hello, please tell me recorded polymerase ribozyme fitness (log ratio) for this one: A28U G84U
Reply | ≤ -4.2

Ask | Please look at this variant and report its polymerase ribozyme fitness (log ratio): A29C A49G C87A A150G
Reply | ≤ -4.2

Ask | Quote polymerase ribozyme fitness (log ratio) reported for U45A U82A A106G A122G U148G please.
Reply | ≤ -4.2

Ask | State its polymerase ribozyme fitness (log ratio) for this variant: U4G A47U G58C C93G
Reply | -4

Ask | Fill in reported polymerase ribozyme fitness (log ratio) for this entry: C35U G117U
Reply | 0.973

Ask | Give the measured polymerase ribozyme fitness (log ratio) for C8G U53C G58C C79U A89G U139C
Reply | ≤ -4.2

Ask | Report polymerase ribozyme fitness (log ratio), nothing else, for this variant: C76A C85A
Reply | -1.96

Ask | Kindly indicate its recorded polymerase ribozyme fitness (log ratio). Item: A30U A49C A60U U77C U148A
Reply | ≤ -4.2

Ask | Read off the recorded polymerase ribozyme fitness (log ratio) for C32G U45C
Reply | -4.16

Ask | Give reported polymerase ribozyme fitness (log ratio) value for A47U A49G G141A U145A
Reply | ≤ -4.2

Ask | # return recorded polymerase ribozyme fitness (log ratio) for entry C95G C96U A120U A122C U139G
Reply | -1.86

Ask | Return the recorded polymerase ribozyme fitness (log ratio) value; entry: G70C C103G A120G U127C U134C
Reply | ≤ -4.2

Ask | Please report the measured polymerase ribozyme fitness (log ratio) for A17C C35U G74A C76A U78G
Reply | ≤ -4.2

Ask | Note down polymerase ribozyme fitness (log ratio) recorded for C14U C54U G68C G84C C87G A91C A147C
Reply | ≤ -4.2

Ask | Please report the measured polymerase ribozyme fitness (log ratio) for C35G G58C C125U A147C
Reply | ≤ -4.2

Ask | Given A22G A39C U56A G80U , respond with its polymerase ribozyme fitness (log ratio).
Reply | ≤ -4.2

Ask | Return reported polymerase ribozyme fitness (log ratio). Input variant: A49C A52C U56C C87G C95U A98G A107C A119G
Reply | -4.17

Ask | Read off the recorded polymerase ribozyme fitness (log ratio) for A19G U53G A120U
Reply | -2.57
